Test system: MT4
assay name: Concentration required to inhibit the cytopathicity of HIV-1 strain BRU by 50% in MT-4 cells (expressed in AZT equivalent)
Assay type: functional, cell-based
assay conditions: Homo sapiens
Record form. Attribute: pEC50. Fill in for each entry.
Please note pEC50 is a logarithmic value: minus log10 of concentration in mol/L. Answer with that number alone.

So for Cc1cn([C@H]2C[C@H](N=[N+]=[N-])[C@@H](COC(=O)CCC(=O)O)O2)c(=O)[nH]c1=O , the logged pEC50 turned out to be 7.82

Recorded result, Cc1cn([C@H]2C[C@H](N=[N+]=[N-])[C@@H](CO)O2)c(=O)[nH]c1=O , pEC50: 7.60
